The measurements presented in this section are drawn from patent US20230074436A1.

Listed here: items and their measured pKd.
Biological target: human alpha-synuclein monomer (human, UniProt P37840 1-140)
Test: SPR (Biacore 8K), IgG captured on anti-human Fc, aSyn monomer injected;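 also: aSyn injected as a dilution series, signal corrected against a reference cell holding an irrelevant IgG, Kd from one-to-one Langmuir kinetic fitting of kon and koff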
Units for pKd: none; it is -log10 of a concentration expressed in mol/L.

H1_1_LC2 (antibody, V domains shown) VH: EVQLVESGGGLVQPGGSLRLSCAASGFTFSKAAMYWVRQAPGKGLELVSRIRTKPNNYATYHADSVKGRFTISRDNSKNTLYLQMNSLRAEDTAVYYCTADMATGDYWGQGTLVTVSS VL: DIQMTQSPSSLSASVGDRVTITCKASQNINKNLDWYQQKPGKAPKPLIYSTNNLQTGVPSRFSGSGSGTDFTLTISSLQPEDFATYYCYQYKSAWTFGQGTKVEIK
8.46
H1_2_LC2 (antibody, V domains shown) VH: EVQLVESGGGLVQPGGSLRLSCAASGFRFSKAAMYWVRQAPGKGLELVSRIRTKPNNYATYHADSVKGRFTISRDNSKNTLYLQMNSLRAEDTAVYYCTADMATGDYWGQGTLVTVSS VL: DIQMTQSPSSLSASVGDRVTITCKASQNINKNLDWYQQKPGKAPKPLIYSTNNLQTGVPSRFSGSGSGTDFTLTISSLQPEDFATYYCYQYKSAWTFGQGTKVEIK
8.45

--- query ---
Entry H1_4_LC2 (antibody, V domains shown) VH: EVQLVESGGGLVQPGGSLRLSCAASGFTFNKAAMYWVRQAPGKGLELVSRIRTKPNNYATYHADSVKGRFTISRDNSKNTLYLQMNSLRAEDTAVYYCTADMATGDYWGQGTLVTVSS VL: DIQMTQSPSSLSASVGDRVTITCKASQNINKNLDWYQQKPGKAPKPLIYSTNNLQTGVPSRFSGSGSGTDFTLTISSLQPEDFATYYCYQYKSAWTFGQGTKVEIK , pKd reported as 8.45
